protocol details: Quantitative High-Throughput drug screen in 47 multiple myeloma cell lines against the NCATS MIPE library collection: KMS12PE_JCRB cell viability assay (AID 1918972); also: nearly all actives have a fitted effect of over 30% in size;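 as to viability: 100% = DMSO only wells and 0% = wells with media alone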
experimental parameters: KMS12PE myeloma viability, CellTiter-Glo ATP, 48 h; series mostly up to 45.8 µM
Inconclusive results are not listed. Active and inactive are the calls of the source. Calls follow the shape of the dose curve; as a rule, active = well fitted cell-killing curve with a large enough effect; inconclusive = small, poorly fitted or top-dose-only effect, or effect the other way; inactive = no such curve, though single readings can be large or run the other way.
Possible outcomes: 1 = active, 0 = inactive

>  <compound>
CNC(=O)c1ccc2c(C(=Nc3cccc(CN(C)C)c3)c3ccccc3)c(O)[nH]c2c1

>  <category label>
1

$$$$
>  <compound>
N#CC1(c2cccc(C(=O)Nc3cc(Oc4ccc5nc(NC(=O)C6CC6)sc5n4)ccc3F)c2Cl)CC1

>  <category label>
1

$$$$
>  <compound>
CN1CCN2c3ncccc3Cc3ccccc3C2C1 (centres undefined)

>  <category label>
0

$$$$
>  <compound>
CC(NCCc1ccc(O)cc1)C(O)c1ccc(O)cc1 (centres undefined)

>  <category label>
0

$$$$
>  <compound>
CCCCCOC(=O)Nc1nc(=O)n([C@@H]2O[C@H](C)[C@@H](O)C2O)cc1F (some centres undefined)

>  <category label>
0

$$$$
>  <compound>
CC[C@H](C)n1cc(C)c2c(C(=O)NCc3c(C)cc(C)[nH]c3=O)cc(-c3ccc(N4CCNCC4)nc3)cc21

>  <category label>
0

$$$$
>  <compound>
Cc1cccc(-c2[nH]c(C(C)(C)C)nc2-c2ccc3c(c2)OCO3)n1

>  <category label>
1

$$$$
>  <compound>
CN1c2ccccc2C(=O)N2CCc3c([nH]c4ccccc34)C21 (centres undefined)

>  <category label>
0

$$$$
>  <compound>
CCCCCCCCCCCCCC(=O)N[C@H](CO)[C@H](O)c1ccc([N+](=O)[O-])cc1

>  <category label>
1

$$$$

###

protocol details: Quantitative High-Throughput drug screen in 47 multiple myeloma cell lines against the NCATS MIPE library collection: Karpas620_DSMZ cell viability assay (AID 1918959); also: nearly all actives have a fitted effect of over 30% in size
experimental parameters: Karpas620 myeloma viability, CellTiter-Glo ATP luminescence, 48 h; series mostly up to 45.8 µM
Inconclusive results are not listed. The source made the active and inactive calls. Calls follow the shape of the dose curve; as a rule, active = well fitted cell-killing curve with a large enough effect; inconclusive = small, poorly fitted or top-dose-only effect, or effect the other way; inactive = no such curve, though single readings can be large or run the other way.
Classes used: active, inactive

>  <compound>
C[C@@H](O)[C@H]1C(=O)N2C(C(=O)OCOC(=O)C(C)(C)C)=C(SC3CN(C4=NCCS4)C3)[C@H](C)[C@H]12

>  <category label>
inactive

$$$$
>  <compound>
COc1ccnc(CS(=O)c2nc3ccc(OC(F)F)cc3[nH]2)c1OC (configuration not stated)

>  <category label>
active

$$$$
>  <compound>
Cc1cc(NC(=O)Nc2ccc(N(C)C)cc2)c2cc(F)cc(F)c2n1

>  <category label>
inactive

$$$$
>  <compound>
CC(=O)Nc1cccc(-n2c(=O)n(C3CC3)c(=O)c3c(Nc4ccc(I)cc4F)n(C)c(=O)c(C)c32)c1

>  <category label>
active

$$$$
>  <compound>
Nc1[nH]nc2nnc(-c3c(-c4ccccc4)nn4ccccc34)cc12

>  <category label>
active

$$$$
>  <compound>
CON(C)C(=O)N1N=C(c2cc(F)ccc2F)S[C@]1(CCCN)c1ccccc1

>  <category label>
inactive

$$$$
>  <compound>
CC(C)CN(C[C@H](O)[C@H](Cc1ccccc1)NC(=O)O[C@H]1CCOC1)S(=O)(=O)c1ccc(N)cc1

>  <category label>
inactive

$$$$
>  <compound>
COc1ccc(C=CC(=O)Nc2ccccc2C(=O)O)cc1OC

>  <category label>
inactive

$$$$
>  <compound>
CCC[C@@H](NC(=O)[C@@H]1[C@H]2CCC[C@@H]2CN1C(=O)[C@@H](NC(=O)[C@@H](NC(=O)c1cnccn1)C1CCCCC1)C(C)(C)C)C(=O)C(=O)NC1CC1

>  <category label>
active

$$$$
>  <compound>
Cc1ccc2c(c1)C(=O)[C@]1(O)CCN(c3ccccc3)C1=N2

>  <category label>
inactive

$$$$
>  <compound>
COc1ccc2c(c1)CC[C@H]1[C@@H]2CC[C@]2(C)[C@@H](NCCCCCCN3C(=O)C=CC3=O)CC[C@H]12

>  <category label>
inactive

$$$$
>  <compound>
CC1CNc2c(cccc2S(=O)(=O)N[C@@H](CCCN=C(N)N)C(=O)N2CC[C@@H](C)C[C@@H]2C(=O)O)C1 (some centres not stated)

>  <category label>
active

$$$$
>  <compound>
O[C@@H](COc1cccc2ncccc12)CN1CCN(C2c3ccccc3[C@@H]3[C@H](c4ccccc42)C3(F)F)CC1 (some centres not stated)

>  <category label>
inactive

$$$$
>  <compound>
C=C1c2cccc(O)c2C(O)=C2C(=O)[C@@]3(O)C(O)=C(C(N)=O)C(=O)[C@@H](N(C)C)[C@@H]3[C@@H](O)[C@H]12

>  <category label>
inactive

$$$$
>  <compound>
Cc1cc(OCCCS(C)(=O)=O)cc(C)c1-c1cccc(COc2ccc3c(c2)OC[C@H]3CC(=O)O)c1

>  <category label>
active

$$$$
>  <compound>
O=C1NC(=O)C(=Cc2ccc(-c3ccc(F)cc3O)o2)S1

>  <category label>
inactive

$$$$
>  <compound>
CCN(CCO)CCCOc1ccc2c(Nc3cc(CC(=O)Nc4cccc(F)c4)[nH]n3)ncnc2c1

>  <category label>
inactive

$$$$
>  <compound>
Cc1c(-c2cccc3c(CCCOc4cccc5ccccc45)c(C(=O)O)n(Cc4cccnc4)c23)c(COc2ccc(N3CCN([S+](=O)([O-])N(C)C)CC3)cc2)nn1C

>  <category label>
inactive

$$$$
>  <compound>
Cn1c(=O)c(Oc2ccc(F)cc2F)cc2cnc(NC3CCOCC3)nc21

>  <category label>
inactive

$$$$
>  <compound>
CNC1CCC(N(Cc2cccc(-c3ccncc3)c2)C(=O)c2sc3ccccc3c2Cl)CC1 (configuration not stated)

>  <category label>
active

$$$$
>  <compound>
C[C@]12C=CC(=O)C=C1CC[C@@H]1[C@@H]2[C@@H](O)C[C@@]2(C)[C@@H]1CC[C@]2(O)C(=O)CO

>  <category label>
inactive

$$$$
>  <compound>
O=c1[nH]nc(OCCCc2ccc(Cl)cc2)c(NCc2cccnc2)c1Br

>  <category label>
active

$$$$
